Taken from PubChem BioAssay.

// reported differential viability (reversal) for each item listed
assay: reversal of MRP1-mediated doxorubicin resistance, pilot screen, H69AR cells, doxorubicin co-treatment (AID 601); conditions: H69AR cells + 2 uM doxorubicin, CellTiter-Glo, 72 h; at 10 µM; active compounds read high
Activity calls are given as the source filed them.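 How the source made its calls: active means viability loss from added drug above about 55%, and viability with drug at most 40%, in both replicates (limit read from the data, passing the limit was not always enough); inconclusive means both conditions met in only one replicate; inactive means neither replicate meets both conditions.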

COMPOUND: Cc1nc(NC2=NCN(CCCN3CCOCC3)CN2)nc2c(C)cccc12
QUANTITY NAME: differential viability (reversal)
REPORTED: -12.3% (inactive)
//
COMPOUND: Cc1cccc(N2CCN(C(=O)C3CCCN(S(=O)(=O)c4c(C)noc4C)C3)CC2)c1C (stereo not given)
QUANTITY NAME: differential viability (reversal)
REPORTED: 2.14% (inactive)
//
COMPOUND: CN(C)c1ccc(C=NCC2(O)CCOC(C)(C)C2)cc1 (stereo not given)
QUANTITY NAME: differential viability (reversal)
REPORTED: 0.32% (inactive)
//
COMPOUND: O=C(CN1CCN(C2CCCCC2)CC1)Nc1ccccc1-c1ccccc1
QUANTITY NAME: differential viability (reversal)
REPORTED: 7.96% (inactive)
//
COMPOUND: COc1ccc(Cl)cc1NC(=O)CCN1CCN(c2ccccc2C)CC1
QUANTITY NAME: differential viability (reversal)
REPORTED: 5.5% (inactive)

Recorded differential viability (reversal) of CN(C)/C=C1\N=C(c2ccc(Cl)cc2Cl)OC1=O , please.
19.6% (inactive)

Next: CCOC(=O)CN1C2=NCCN2c2ccccc21
10.9% (inactive)

Next: CCc1ccc(NC(=O)CS(=O)CC(=O)NC(C)CCc2ccco2)cc1 (stereo not given)
11.5% (inactive)

Next: CSc1nnc(-c2cnccn2)n1C
0.99% (inactive)

Next: CC1Oc2ccccc2N(Cc2ccccc2Cl)C1=O (stereo not given)
11.3% (inactive)

Next: CC(=O)N1CCN(c2ccc(NC(=O)c3ccc(C(C)(C)C)cc3)cc2)CC1
-12.4% (inactive)

Next: O=C(Nc1cc(C(=O)N2CCCC2)ccc1N1CCCC1)c1ccccc1F
8.93% (inactive)

Next: CC(=O)N1C(=O)c2cccc3cccc(c23)C(=O)N1C(C)=O
-1.27% (inactive)

Next: Cc1ccc(N2CC(C(=O)Nc3ccc4c(c3)OCO4)CC2=O)cc1 (stereo not given)
12% (inactive)

Next: Cc1c(NC(=O)c2coc(=O)c(Br)c2)c(=O)n(-c2ccccc2)n1C
-0.165% (inactive)

Next: CC1CCCN(c2ccc(C(=O)NCc3cccs3)cn2)C1 (stereo not given)
4.85% (inactive)

Next: C/C=C(\C)c1nnc(NC(=O)OCC)s1
6.96% (inactive)

Next: N#Cc1c(NC(=O)COC(=O)C2CC3C=CC2C3)oc(-c2ccccc2)c1-c1ccccc1 (stereo not given)
-23.4% (inactive)

Next: O=C(NCCSCc1ccco1)Nc1cccc(Cl)c1
2.05% (inactive)

Next: CC1CN(c2nc3ccccc3nc2C(C#N)C(=O)OC2CCCCC2)CC(C)O1 (stereo not given)
12.6% (inactive)

====

test: HUVEC growth inhibition – cell-based, human, primary screen (AID 575); conditions: HUVEC proliferation, CellTiter-Glo luminescence, 72 h; at 10 µM; active compounds read low;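 further: 100% = median of untreated cell wells with 0.1% DMSO on each plate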
QUANTITY NAME: viability (%)
Respond numerically; units are % and should not be typed.

// below: answered compounds
COMPOUND: CCn1ncc(C2=NOC(C(=O)NCc3ccc(Cl)cc3)C2)c1C (configuration not stated)
QUANTITY NAME: viability
REPORTED: 38.7

COMPOUND: CC[C@]1(O)CC2CN(CCc3c([nH]c4ccccc34)[C@@](C(=O)OC)(c3cc4c(cc3OC)N(C=O)[C@H]3[C@@](O)(C(=O)OC)[C@H](OC(C)=O)[C@]5(CC)C=CCN6CC[C@]43[C@@H]65)C2)C1 (some centres not stated)
QUANTITY NAME: viability
REPORTED: 34.6

COMPOUND: COCCNC(=O)NC(=O)COC(=O)Cc1ccc2c(c1)OCCO2
QUANTITY NAME: viability
REPORTED: 111

COMPOUND: CC(=O)c1ccc(-n2nnnc2SCC(=O)N2CCc3ccccc3C2)cc1
QUANTITY NAME: viability
REPORTED: 106

COMPOUND: O=C(c1ncn[nH]1)N1CCN(c2nc(-c3ccccc3)cs2)CC1
QUANTITY NAME: viability
REPORTED: 104

COMPOUND: O=C1c2oc3ccccc3c(=O)c2C(c2cccnc2)N1Cc1ccco1 (configuration not stated)
QUANTITY NAME: viability
REPORTED: 106

Recorded viability of COc1ccccc1OC(=O)c1ccc(SC)cc1OC , please.
98.4

Next: CC(C)(C)NC(=O)CN(Cc1cccs1)C(=O)c1csnn1
99.7

Next: CC1(C)SC2[C@H](NC(=O)C(NC(=O)N3CCNC3=O)c3ccccc3)C(=O)N2C1C(=O)O (some centres not stated)
80.2

====

// reported inhibition for each item listed
assay: growth suppression of yeast trafficking mutant, preliminary HTS, modulators of trafficking downstream of Golgi apparatus project, 1536-format plate, OD 615 nm (AID 637); details: yeast transport mutant growth, absorbance 615 nm, 18 h; active compounds read high
Respond numerically; units are % and should not be typed.

// below: answered molecules
MOLECULE: CCOc1ccc(N(CC(=O)NCC2CCCO2)S(=O)(=O)c2ccc(OC)c(OC)c2)cc1 (stereo not drawn)
inhibition (%): -5.97

MOLECULE: COc1ccc(-n2cc(-c3ccccc3)c3c(N4CCN(CCO)CC4)ncnc32)cc1
inhibition (%): 0.48

MOLECULE: Cc1cc(C)cc(-n2ccnc2SCC(=O)Nc2ccc3c(c2)OCCO3)c1
inhibition (%): -0.91

Recorded inhibition of COc1cc([C@@H]2[C@H]3CN(C)CC=C3C(C#N)=C(N)C2(C#N)C#N)cc2c1OCO2 , please.
0.18

Next: c1ccc(-c2cnc(CSc3ncnc4sccc34)o2)cc1
-5.82

Next: CCOc1ccccc1N1CCN(c2nc3ccccc3nc2C(C#N)C(=O)OC)CC1 (stereo not drawn)
-2.1

Next: CC(C)COc1ccc(C(=O)OCCN2CCOCC2)cc1
-3.65

Next: CCCNC(=O)c1cc(S(=O)(=O)N2CCc3ccccc32)ccc1F
2.18

Next: FC(F)(F)c1ccc(Sc2nnc(-c3cccs3)n2CC2CCCO2)nc1 (stereo not drawn)
2

Next: Cn1c(=O)c2c(nc(NCc3ccco3)n2C/C=C/c2ccccc2)n(C)c1=O
0.16

Next: O=c1oc2ccccc2c(N2CCCCC2)c1CN1CCCCC1
-4.03

Next: Cc1cc(S(=O)(=O)N2CCN(c3ncccn3)CC2)ccc1-n1cnnn1
-0.73

Next: Cc1ccc(CNC(=O)C2CC(=O)OC23CCCC3)c(C)c1 (stereo not drawn)
3.17

Next: CC1(C)Cc2c(sc3c2C2=NCCN2C=N3)CS1
2.73

Next: COc1ccc(N2C(=O)C3C4C=CC(C4)C3C2=O)nn1 (stereo not drawn)
-4.59

Next: CCCOc1cccc(NC(=O)c2c(-c3ccccc3)noc2C)c1
-1.97

Next: CCC(C)(C)n1nnnc1C(c1cc2cc(C)ccc2[nH]c1=O)N1CCCC1 (stereo not drawn)
4.26

Next: O=C(CNC(=O)c1cccs1)NCCN1CCN(c2ccccc2F)CC1
2.54

Next: Cc1ccc2[nH]c(=O)c(-c3noc(-c4ccncc4)n3)cc2c1
6.18

Next: O=S(=O)(c1ccc(Br)s1)N1CCN(c2ccccc2)CC1
-3.27

Next: CCC(=O)Nc1ccc(NC(=O)c2ccccn2)cn1
-8

Next: Cc1cc(=O)n2[nH]c(-c3ccc(Cl)cc3)cc2n1
5.45

Next: CCOC(=O)N1CCN(c2cc3[nH]c(=S)[nH]c3cc2F)CC1
-2.58

====

test: growth inhibitors of H69AR lung tumor, primary screen, human, duplicate replicates (AID 580); settings: H69AR lung tumor cells viability, ATP luminescence, 72 h; at 10 µM; active compounds read low;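 further: 100% = mean luminescence of untreated wells and 0% = no signal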
QUANTITY NAME: viability (%)
Respond numerically; units are % and should not be typed.

COMPOUND: CCn1c(SCC(=O)c2ccc(Cl)cc2)nnc1-c1ccoc1C
REPORTED: 93.6

Recorded viability of CCN(CCCc1ccccc1)CCCc1ccccc1 , please.
78.6

Next: CC(C)CN(CC(C)C)C(=O)C12CCC(C)(C(=O)C1)C2(C)C (stereo unspecified)
96.8

Next: Cc1c(C=NCCOCc2ccccc2)cnn1C
96.2

Next: O=C(NCC1CCCO1)C1CCC(CNS(=O)(=O)c2ccccc2)CC1 (stereo unspecified)
90.3

Next: COc1ccccc1NC(=O)C(C)NS(=O)(=O)c1ccc(F)cc1 (stereo unspecified)
89.2

====

assay: 384-well plate pilot, post-Golgi transport modulator project, inhibition of yeast transport mutant growth (AID 636); conditions: absorbance 615 nm, about 18 h, active compounds read high
QUANTITY NAME: inhibition (%)
Respond numerically; units are % and should not be typed.

// below: answered compounds
COMPOUND: CCCNC(=O)N1CCN(S(=O)(=O)c2ccc(C)c(C)c2)CC1
inhibition (%): 3.42

COMPOUND: COc1ccc2c(c1)C1(Nc3ccccc3-c3nc4ccccc4n31)C(=O)N2 (centres undefined)
inhibition (%): -8.49

COMPOUND: COc1ccc(NC(=O)N2CCN(c3nc(-c4cccc(OC)c4)cs3)CC2)cc1
inhibition (%): -9.59

COMPOUND: O=C(CSc1nc2ccc(Cl)cc2[nH]1)NCc1ccco1
inhibition (%): 0.65

COMPOUND: Nc1nc(SCc2nc3scc(-c4cccs4)c3c(=O)[nH]2)n[nH]1
inhibition (%): -2.67

Recorded inhibition of Cc1cc(C)n(Cc2nc3ccccc3n2C)n1 , please.
0.52

Next: O=S(=O)(NCCc1ccncc1)c1cc(Br)ccc1F
-3.9

Next: CCOc1ccccc1N(CC(=O)N1CCOCC1)S(=O)(=O)c1ccccc1
2.8

Next: CCOC(=O)N1CCC(=C2c3ccc(Cl)cc3CCc3cccnc32)CC1
1.95

Next: Oc1cccc(Nc2nc(NCC3CCCO3)c3ccccc3n2)c1 (centres undefined)
-5

Next: O=C(CN1CCC(O)(c2ccc3c(c2)OCO3)CC1)OC1CCCCC1
-7.3

Next: COC(=O)COc1ccc(C(=O)OC)cc1
-1.84

Next: O=C(CN1CCC(c2nc3ccccc3s2)CC1)NCc1cccs1
-0.8

Next: COc1cccc(NC(=O)CSc2nnnn2C(C)C)c1
-3.65

Next: Cc1nn(CC(O)Cn2c3c(c4ccccc42)CCN(C)C3=O)c(C)c1Br (centres undefined)
-4

Next: CN1CCN(C(=O)c2cnn3c(C(F)F)cc(C4CC4)nc23)CC1
-2.63

Next: O=C1OC(c2ccc(O)cc2)(c2ccc(O)cc2)c2ccccc21
-2.73

Next: CC1(C)NC(=O)N(CC(O)CN2CCCC2)C1=O (centres undefined)
0.13

Next: Cc1cc(C)n(CC(=O)O)n1
-7.7

Next: O=C(c1ccccc1)c1ccc(N2CCNCC2)cc1
-2.05

Next: CC1CN(C(=O)CSc2ncnc3sccc23)CC(C)O1 (centres undefined)
-5.75
